Measured Target: Human CaV2.2 channels (Homo sapiens)
Construct: expressed in transfected cells
Sequence (Q00975 whole entry): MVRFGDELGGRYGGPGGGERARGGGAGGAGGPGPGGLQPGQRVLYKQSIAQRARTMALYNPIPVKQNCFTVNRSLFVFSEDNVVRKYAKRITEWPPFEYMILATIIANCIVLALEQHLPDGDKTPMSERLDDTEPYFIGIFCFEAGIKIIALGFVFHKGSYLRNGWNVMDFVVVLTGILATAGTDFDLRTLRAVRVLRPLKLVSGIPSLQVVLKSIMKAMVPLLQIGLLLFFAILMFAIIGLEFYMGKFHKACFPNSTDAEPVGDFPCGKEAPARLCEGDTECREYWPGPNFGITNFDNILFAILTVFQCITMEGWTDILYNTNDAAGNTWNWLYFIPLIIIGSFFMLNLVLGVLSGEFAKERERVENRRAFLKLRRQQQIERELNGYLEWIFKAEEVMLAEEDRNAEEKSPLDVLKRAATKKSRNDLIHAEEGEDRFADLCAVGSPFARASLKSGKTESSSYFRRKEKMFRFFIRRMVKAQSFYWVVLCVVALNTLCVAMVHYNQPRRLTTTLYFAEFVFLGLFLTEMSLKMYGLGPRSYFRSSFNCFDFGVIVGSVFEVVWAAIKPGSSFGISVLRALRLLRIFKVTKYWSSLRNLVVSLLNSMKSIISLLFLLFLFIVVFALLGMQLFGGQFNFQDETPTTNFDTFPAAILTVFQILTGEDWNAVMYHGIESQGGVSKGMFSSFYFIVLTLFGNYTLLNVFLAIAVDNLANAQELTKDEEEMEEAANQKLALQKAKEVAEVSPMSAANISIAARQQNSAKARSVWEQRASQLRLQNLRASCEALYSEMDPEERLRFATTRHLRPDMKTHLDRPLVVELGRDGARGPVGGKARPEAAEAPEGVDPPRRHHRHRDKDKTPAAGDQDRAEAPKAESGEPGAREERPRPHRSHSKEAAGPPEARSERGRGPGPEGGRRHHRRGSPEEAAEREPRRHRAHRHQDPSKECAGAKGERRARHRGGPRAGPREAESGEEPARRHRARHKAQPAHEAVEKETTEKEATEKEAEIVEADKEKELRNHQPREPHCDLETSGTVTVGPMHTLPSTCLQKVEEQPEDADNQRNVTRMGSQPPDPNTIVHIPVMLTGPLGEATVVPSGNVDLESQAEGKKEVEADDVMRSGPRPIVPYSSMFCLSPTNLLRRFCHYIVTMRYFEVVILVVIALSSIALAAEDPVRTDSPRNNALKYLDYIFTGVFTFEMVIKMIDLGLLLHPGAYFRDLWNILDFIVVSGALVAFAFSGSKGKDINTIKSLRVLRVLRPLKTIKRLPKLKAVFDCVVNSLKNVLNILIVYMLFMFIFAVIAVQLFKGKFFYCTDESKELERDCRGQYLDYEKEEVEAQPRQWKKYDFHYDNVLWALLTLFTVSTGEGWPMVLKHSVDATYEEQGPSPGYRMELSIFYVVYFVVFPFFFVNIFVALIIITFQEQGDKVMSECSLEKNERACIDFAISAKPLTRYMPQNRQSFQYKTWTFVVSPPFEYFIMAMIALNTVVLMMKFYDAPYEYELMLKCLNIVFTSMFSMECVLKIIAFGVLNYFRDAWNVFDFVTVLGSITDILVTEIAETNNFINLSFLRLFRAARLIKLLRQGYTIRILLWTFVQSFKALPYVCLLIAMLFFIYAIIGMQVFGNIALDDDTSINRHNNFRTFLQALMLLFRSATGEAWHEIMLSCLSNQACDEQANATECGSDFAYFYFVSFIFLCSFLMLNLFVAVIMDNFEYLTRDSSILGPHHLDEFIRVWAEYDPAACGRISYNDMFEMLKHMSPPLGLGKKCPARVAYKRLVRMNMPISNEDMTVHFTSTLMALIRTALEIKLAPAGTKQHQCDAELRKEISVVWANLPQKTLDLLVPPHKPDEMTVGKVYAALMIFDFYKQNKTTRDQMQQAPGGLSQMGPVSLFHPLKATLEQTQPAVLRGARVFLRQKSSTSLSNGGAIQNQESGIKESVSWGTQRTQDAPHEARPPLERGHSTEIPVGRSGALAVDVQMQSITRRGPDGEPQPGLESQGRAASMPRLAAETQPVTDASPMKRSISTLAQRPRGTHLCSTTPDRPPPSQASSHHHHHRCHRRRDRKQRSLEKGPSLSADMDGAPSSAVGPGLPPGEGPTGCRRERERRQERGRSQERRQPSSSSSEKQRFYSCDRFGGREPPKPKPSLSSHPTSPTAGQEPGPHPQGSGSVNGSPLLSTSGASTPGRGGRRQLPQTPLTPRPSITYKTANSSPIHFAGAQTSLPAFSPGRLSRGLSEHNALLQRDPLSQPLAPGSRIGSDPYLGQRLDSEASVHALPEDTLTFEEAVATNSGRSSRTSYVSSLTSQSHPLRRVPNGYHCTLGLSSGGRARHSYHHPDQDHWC
Sequence (P54289 25-1103, further chain): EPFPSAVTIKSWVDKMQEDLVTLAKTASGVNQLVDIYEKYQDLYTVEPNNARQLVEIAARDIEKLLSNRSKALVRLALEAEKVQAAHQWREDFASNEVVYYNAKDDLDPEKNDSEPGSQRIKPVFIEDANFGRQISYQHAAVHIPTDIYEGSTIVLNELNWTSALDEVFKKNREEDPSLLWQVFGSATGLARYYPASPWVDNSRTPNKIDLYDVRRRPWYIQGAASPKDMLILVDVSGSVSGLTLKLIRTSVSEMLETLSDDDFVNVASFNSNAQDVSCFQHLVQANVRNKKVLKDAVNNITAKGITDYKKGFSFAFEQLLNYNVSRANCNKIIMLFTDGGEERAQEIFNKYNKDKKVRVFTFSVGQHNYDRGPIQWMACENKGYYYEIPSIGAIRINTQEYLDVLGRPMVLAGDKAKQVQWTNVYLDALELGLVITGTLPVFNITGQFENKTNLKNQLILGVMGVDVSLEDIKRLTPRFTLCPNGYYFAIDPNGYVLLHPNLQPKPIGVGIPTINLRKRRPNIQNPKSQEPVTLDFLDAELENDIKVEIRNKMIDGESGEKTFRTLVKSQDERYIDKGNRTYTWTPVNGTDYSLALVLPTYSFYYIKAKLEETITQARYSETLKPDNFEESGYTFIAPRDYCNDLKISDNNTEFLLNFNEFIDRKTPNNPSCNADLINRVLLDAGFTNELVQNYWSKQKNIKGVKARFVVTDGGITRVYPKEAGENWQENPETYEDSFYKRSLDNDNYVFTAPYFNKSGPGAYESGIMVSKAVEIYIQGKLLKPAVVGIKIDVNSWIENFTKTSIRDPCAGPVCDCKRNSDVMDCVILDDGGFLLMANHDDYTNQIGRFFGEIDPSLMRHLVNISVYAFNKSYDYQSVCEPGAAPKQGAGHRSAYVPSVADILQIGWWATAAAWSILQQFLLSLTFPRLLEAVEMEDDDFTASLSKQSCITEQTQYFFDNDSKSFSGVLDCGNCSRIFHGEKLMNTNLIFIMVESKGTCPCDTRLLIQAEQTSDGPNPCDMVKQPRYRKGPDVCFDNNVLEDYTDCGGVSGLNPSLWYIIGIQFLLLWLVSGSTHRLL
Sequence (P54284 whole entry, further chain): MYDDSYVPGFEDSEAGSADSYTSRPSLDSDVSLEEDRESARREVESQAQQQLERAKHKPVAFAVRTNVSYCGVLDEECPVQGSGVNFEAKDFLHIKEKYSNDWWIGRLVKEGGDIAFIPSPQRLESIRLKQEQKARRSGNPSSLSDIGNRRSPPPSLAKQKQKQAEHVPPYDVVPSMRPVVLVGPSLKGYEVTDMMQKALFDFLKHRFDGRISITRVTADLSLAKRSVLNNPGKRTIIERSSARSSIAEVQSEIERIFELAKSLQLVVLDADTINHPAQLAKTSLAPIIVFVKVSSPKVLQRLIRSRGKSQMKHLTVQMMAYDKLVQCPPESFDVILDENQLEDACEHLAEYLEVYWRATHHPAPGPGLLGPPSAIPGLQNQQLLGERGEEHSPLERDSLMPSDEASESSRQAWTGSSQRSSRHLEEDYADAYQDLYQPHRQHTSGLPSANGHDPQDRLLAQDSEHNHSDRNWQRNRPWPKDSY
Protocol Summary: Fluorescent assay for CaV2.2 channels using potassium depolarization to induce channel opening (FLIPR, Fluo-4)
Assay type: cell-based
Measurement Parameters: 3 μM test compound, 30 mM KCl, HEK293 cells stably expressing human CaV2.2; read-out: %-Inhib (CaV2.2) @3 μM @30 mM KCl
Measurement Label: inhibition at 3 µM

Cc1c(-c2ccc(Cl)cc2F)c(C(=O)N2CCOC(C)(C)C2)n(Cc2ccccc2)c1C(F)(F)F ... > 95%

Given item CN(CC1CCCCO1)C(=O)c1c(-c2ccc(Cl)cc2)cc(C(F)(F)F)n1Cc1ccccc1 (centres unmarked) , the value recorded as its inhibition at 3 µM is 75 to 95%

Given item `Cc1c(-c2ccc(OC(F)(F)F)cc2)c(C(=O)N2CC(F)(F)C2)n(Cc2ccccc2)c1C(F)(F)F` , the value recorded as its inhibition at 3 µM is 40 to 75%

Given item `Cc1c(-c2ccc(Cl)cc2)c(C(=O)N2CCNC(=O)C2)n(Cc2ccccc2)c1C(F)(F)F` , the value recorded as its inhibition at 3 µM is 75 to 95%

Given item Cc1c(-c2ccc(Cl)cc2)c(C(=O)N(C)CC2CCC[C@H]2O)n(Cc2ccccc2)c1C(F)(F)F (some centres unmarked) , the value recorded as its inhibition at 3 µM is > 95%

Given item `CN(Cc1nccn1C)C(=O)c1c(-c2ccc(Cl)cc2)cc(C(F)(F)F)n1Cc1ccccc1` , the value recorded as its inhibition at 3 µM is > 95%

Given item Cc1c(-c2ccc(Cl)cc2)c(C(=O)N(C)CC2CCCO2)n(Cc2ccccc2)c1C(F)(F)F (centres unmarked) , the value recorded as its inhibition at 3 µM is > 95%

Given item `Cc1c(-c2ccc(Cl)cc2F)c(C(=O)N2CCOCC2)n(Cc2ccccc2)c1C(F)(F)F` , the value recorded as its inhibition at 3 µM is > 95%
